# assayed_system: human GPR40 receptor (Homo sapiens, UniProt O14842)
# Sequence (O14842 whole entry): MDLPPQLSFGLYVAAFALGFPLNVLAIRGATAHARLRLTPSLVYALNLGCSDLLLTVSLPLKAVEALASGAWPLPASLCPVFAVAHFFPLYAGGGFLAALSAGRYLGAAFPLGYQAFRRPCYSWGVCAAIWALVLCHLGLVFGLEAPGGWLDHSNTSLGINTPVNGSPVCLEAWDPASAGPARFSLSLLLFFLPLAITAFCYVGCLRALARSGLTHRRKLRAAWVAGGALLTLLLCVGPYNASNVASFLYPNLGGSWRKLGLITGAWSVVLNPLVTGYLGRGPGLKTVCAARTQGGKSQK
# assay_comment: IP1 accumulation measurements using the IPOne assay system (1321N1 cells stably expressing human GPR40 receptor)
# measurement_conditions: 1321N1 cells expressing human GPR40, 1 h stimulation at 37° C.
outcome_measure: EC50 (nM)
Respond numerically; units are nM and should not be typed.

# count of solved cases: 3
compound	EC50 / nM
Cc1cc(-c2nnn(C)n2)cc(C)c1-c1ccc(F)c2c1CC[C@H]2Nc1ccc(C2C[C@@H]2C(=O)O)cn1 (mixture of isomers)	19
Cc1cc(OCc2ccccc2)cc(C)c1-c1ccc(F)c2c1CC[C@H]2Nc1ccc([C@H]2C[C@@H]2C(=O)O)cn1	35
O=C(O)[C@H]1C[C@@H]1c1ccc(N[C@@H]2CCc3c(-c4c(Cl)cccc4Cl)ccc(F)c32)nc1	13

Enquiry: Which EC50 value belongs to `Cc1cc(OCC2(O)CCSCC2)cc(C)c1-c1ccc(F)c2c1CC[C@H]2Nc1ccc([C@H]2C[C@@H]2C(=O)O)cn1` ?
Return: 17

Enquiry: Which EC50 value belongs to `Cc1cc(OCC(C)(C)O)cc(C)c1-c1ccc(F)c2c1CC[C@H]2Nc1ccc([C@H]2C[C@@H]2C(=O)O)cn1` ?
Return: 17

Enquiry: Which EC50 value belongs to `Cc1cc(-c2ccc(=O)n(C)c2)cc(C)c1-c1cccc2c1CC[C@H]2Nc1ccc([C@H]2C[C@@H]2C(=O)O)cn1` ?
Return: 18

Enquiry: Which EC50 value belongs to `COc1cc(-c2cc(C)c(-c3ccc(F)c4c3CC[C@H]4Nc3ccc([C@H]4C[C@@H]4C(=O)O)cn3)c(C)c2)ccn1` ?
Return: 6
